Recorded IC50 by entry
Molecular target: KRAS G12C protein (Homo sapiens, UniProt P01116, G12C)
Sequence (P01116 1-188 isoform P01116-2 G12C): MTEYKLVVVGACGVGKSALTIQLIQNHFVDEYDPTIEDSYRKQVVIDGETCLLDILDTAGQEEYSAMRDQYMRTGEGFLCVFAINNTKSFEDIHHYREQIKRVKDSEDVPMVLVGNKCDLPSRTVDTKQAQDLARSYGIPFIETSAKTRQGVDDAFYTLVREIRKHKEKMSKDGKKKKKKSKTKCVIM
Experiment: Nucleotide exchange assay (Method III, KRAS G12C/Raf-RBD TR-FRET)
Conditions: SOS1-mediated exchange of GDP for GTP, 18 hr compound incubation

Would you please look over these solved cases?
{"compound": "C=C(F)C(=O)N1CCN(c2nc(N3CCC(N(CC)CC)CC3)nc3c2COC(c2cccc4cccc(Cl)c24)C3)C[C@@H]1CC#N (single isomer, unassigned) [230 (Isomer B)]", "IC50": "300 to 3000 nM"}
{"compound": "C=CC(=O)N1CCN(c2nc(OC[C@@H]3CCCN3C)nc3c2COC(c2cccc4cccc(Cl)c24)C3)C[C@@H]1CC#N (single isomer, unassigned) [38 (Isomer B)]", "IC50": "≤ 300 nM"}

Could you share which IC50 value was measured for C=C(F)C(=O)N1CCN(c2nc(OC[C@H]3CCCN3C)nc3c2COC(c2cccc4cccc(Cl)c24)C3)C[C@@H]1CC#N (single isomer, unassigned) [267 (Isomer A)] ? 300 to 3000 nM

----------
Biological target: KRAS G12C protein (Homo sapiens, UniProt P01116, G12C)
Assay: Nucleotide exchange assay (Method III, KRAS G12C/Raf-RBD TR-FRET)
Conditions: SOS1-mediated exchange of GDP for GTP, 18 hr compound incubation
pIC50: −log10 of the molar value.
Recorded pIC50 by entry

Would you please look over these solved cases?
{"molecule": "C=C(Cl)C(=O)N1CCN(c2nc(OC[C@@H]3CCCN3C)nc3c2COC(c2cccc4cccc(Cl)c24)C3)C[C@@H]1CC#N (single isomer, unassigned) [239 (Isomer B)]", "tgt": "KRAS G12C protein (Homo sapiens, UniProt P01116, G12C)", "value": "≥ 6.52"}
{"molecule": "C=C(F)C(=O)N1CCN(c2nc(Nc3cnn(C)c3)nc3c2COC(c2cccc4cccc(Cl)c24)C3)C[C@@H]1CC#N (single isomer, unassigned) [233 (Isomer B)]", "tgt": "KRAS G12C protein (Homo sapiens, UniProt P01116, G12C)", "value": "≤ 5.52"}
{"molecule": "C=C(F)C(=O)N1CCN(c2nc(OC[C@@H]3CCCN3C)nc3c2COC(c2nc(N)cc4ccccc24)C3)C[C@@H]1CC#N (single isomer, unassigned) [259 (Isomer B)]", "tgt": "KRAS G12C protein (Homo sapiens, UniProt P01116, G12C)", "value": "≥ 6.52"}
{"molecule": "C/C=C/C(=O)N1CCN(c2nc(OC[C@@H]3CCCN3C)nc3c2COC(c2cccc4cccc(Cl)c24)C3)C[C@@H]1CC#N (single isomer, unassigned) [241 (Isomer B)]", "tgt": "KRAS G12C protein (Homo sapiens, UniProt P01116, G12C)", "value": "5.52 to 6.52"}

Give pIC50 (KRAS G12C protein (Homo sapiens, UniProt P01116, G12C)) of the following molecule: C=CC(=O)N1CCN(c2nc(OC[C@@H]3CCCN3C)nc3c2COC(c2cccc4cccc(Cl)c24)C3)CC1 (single isomer, unassigned) [40 (Isomer A)] ≥ 6.52

----------
Molecular target: KRAS G12C protein (Homo sapiens, UniProt P01116, G12C)
Test: Nucleotide exchange assay (Method III, KRAS G12C/Raf-RBD TR-FRET)
Conditions: SOS1-mediated exchange of GDP for GTP, 18 hr compound incubation
Recorded IC50 by entry

{"compound": "C=C(F)C(=O)N1CCN(c2nc(OC3CCN(C)CC3)nc3c2COC(c2cccc4cccc(Cl)c24)C3)C[C@@H]1CC#N (single isomer, unassigned) [234 (Isomer B)]", "tgt": "KRAS G12C protein (Homo sapiens, UniProt P01116, G12C)", "value.type": "IC50", "value": "0.3 to 3 µM"}
{"compound": "C=C(F)C(=O)N1CCN(c2nc(OC[C@@H]3CCCN3C)nc3c2CC=C(c2cccc4cccc(Cl)c24)O3)C[C@@H]1CC#N [Compound 178]", "tgt": "KRAS G12C protein (Homo sapiens, UniProt P01116, G12C)", "value.type": "IC50", "value": "≤ 0.3 µM"}
{"compound": "C=C(F)C(=O)N1CCN(c2nc(OC[C@@H]3CCCN3C)nc3c2COC(c2cccc4cccc(Cl)c24)C3)C[C@H]1C (single isomer, unassigned) [42 (Isomer B)]", "tgt": "KRAS G12C protein (Homo sapiens, UniProt P01116, G12C)", "value.type": "IC50", "value": "≥ 3 µM"}

Could you share which IC50 value was measured for CN(C)C/C=C/C(=O)N1CCN(c2nc(OC[C@@H]3CCCN3C)nc3c2COC(c2cccc4cccc(Cl)c24)C3)C[C@@H]1CC#N (single isomer, unassigned) [242 (Isomer A)] ? ≥ 3 µM

Moving on to the next compound: C=C(F)C(=O)N1CCN(c2nc(Nc3cnn(C)c3)nc3c2COC(c2cccc4cccc(Cl)c24)C3)C[C@@H]1CC#N (single isomer, unassigned) [233 (Isomer A)] ≥ 3 µM

Moving on to the next compound: C=CC(=O)N1CCN(c2nc(OC[C@@H]3CCCN3C)nc3c2COC(c2cccc4cccc(Cl)c24)C3)C[C@@H]1CC#N (single isomer, unassigned) [38 (Isomer A)] 0.3 to 3 µM

Moving on to the next compound: C=C(F)C(=O)N1CCN(c2nc(OC[C@H]3CCCN3C)nc3c2COC(c2cccc4cccc(Cl)c24)C3)C[C@@H]1CC#N (single isomer, unassigned) [267 (Isomer B)] ≤ 0.3 µM

Moving on to the next compound: C=C(F)C(=O)N1CCN(c2nc(NCCC(=O)N(C)C)nc3c2COC(c2cccc4cccc(Cl)c24)C3)C[C@@H]1CC#N (single isomer, unassigned) [232 (Isomer A)] 0.3 to 3 µM

Moving on to the next compound: C=C(F)C(=O)N1CCN(c2nc(OC[C@@H]3CCCN3C)nc3c2COC(c2cccc4cccc(Cl)c24)C3)C[C@H]1C (single isomer, unassigned) [42 (Isomer A)] ≥ 3 µM

These entries and their values trace back to patent US20230023009A1.
